Tested on: Platelet
Experiment: Inhibition of 300 uM arachidonate-induced platelet aggregation in human platelet-rich plasma at 10 uM by turbidometric method
Assay type: functional
Hi, to clarify the labels: fulfilled covers inhibition (INH) from 70% upward, not fulfilled covers anything below 70%.

> print(dat)
                                   compound       tgt       category
1     CCCCCNCC[C@@H]1CCC[C@@H]1CCCCCCC(=O)O  Platelet      fulfilled
2  CCCCCCCN[C@H]1CCC[C@H]1CCCCCCC(=O)O (relative stereo)  Platelet  not fulfilled
3  CCCCCCN[C@H]1CCC[C@@H]1CCCCCCC(=O)O (relative stereo)  Platelet  not fulfilled
4  CCCCCCCN[C@H]1CCC[C@@H]1CCCCCCC(=O)O (relative stereo)  Platelet      fulfilled
5  CCCCCCCCN[C@H]1CCC[C@H]1CCCCCCC(=O)O (relative stereo)  Platelet  not fulfilled
6  O=C(O)CCCCCC[C@H]1CCC[C@@H]1NCc1ccccc1 (relative stereo)  Platelet  not fulfilled
